system: velvetleaf; assay: Postemergent control of plant species; type: in vivo, Abutilon theophrasti; conditions: Abutilon theophrasti, post-emergence, 336 h, read-out: percent postemergent control
Record form. Attribute: pest or weed control at 500 ppm. Fill in for each entry.
One number for each entry, in %.

Recorded pest or weed control at 500 ppm, per entry:
[
  {
    "COMPOUND": "Cc1cc(C)n2nc(S(=O)(=O)Nc3c(C)ccc(Cl)c3Cl)nc2n1 [Compound 74]",
    "TARGET": "velvetleaf",
    "READOUT_KIND": "pest or weed control at 500 ppm",
    "RESULT_NUMBER": 100
  },
  {
    "COMPOUND": "O=S(=O)(Nc1c(F)cccc1F)c1nc2ncc(Cl)cn2n1 [Compound 117]",
    "TARGET": "velvetleaf",
    "READOUT_KIND": "pest or weed control at 500 ppm",
    "RESULT_NUMBER": 100
  },
  {
    "COMPOUND": "COC(=O)c1ccc(Cl)c(NS(=O)(=O)c2nc3nc(C)cc(C)n3n2)c1Cl [Compound 82]",
    "TARGET": "velvetleaf",
    "READOUT_KIND": "pest or weed control at 500 ppm",
    "RESULT_NUMBER": 85
  },
  {
    "COMPOUND": "Cc1cc(C)n2nc(S(=O)(=O)Nc3c(F)c(F)cc(F)c3F)nc2n1 [Compound 90]",
    "TARGET": "velvetleaf",
    "READOUT_KIND": "pest or weed control at 500 ppm",
    "RESULT_NUMBER": 50
  },
  {
    "COMPOUND": "Cc1ccn2nc(S(=O)(=O)N(C(=O)N(C)C)c3c(Cl)cccc3Cl)nc2n1 [Compound 273]",
    "TARGET": "velvetleaf",
    "READOUT_KIND": "pest or weed control at 500 ppm",
    "RESULT_NUMBER": 50
  },
  {
    "COMPOUND": "Cc1cc(C)n2nc(S(=O)(=O)Nc3c(C)cccc3C)nc2n1 [Compound 32]",
    "TARGET": "velvetleaf",
    "READOUT_KIND": "pest or weed control at 500 ppm",
    "RESULT_NUMBER": 50
  }
]

Would you mind giving pest or weed control at 500 ppm for every compound in the list below?
1. COc1ccccc1NS(=O)(=O)c1nc2nc(C)cc(C)n2n1 [Compound 4]
2. Cc1ccn2nc(S(=O)(=O)Nc3c(F)c(F)cc(F)c3F)nc2n1 [Compound 163]
3. Cc1cc(C)n2nc(S(=O)(=O)Nc3ccccc3)nc2n1 [Compound 1]
4. Cc1cc(C)n2nc(S(=O)(=O)Nc3cccc(Cl)c3)nc2n1 [Compound 17]
5. Cc1cc(C)n2nc(S(=O)(=O)Nc3c(Cl)cc(Cl)cc3Cl)nc2n1 [Compound 35]
6. Cc1cc(C)n2nc(S(=O)(=O)Nc3ccccc3[N+](=O)[O-])nc2n1 [Compound 12]
7. COc1ccc(Cl)c(NS(=O)(=O)c2nc3nc(C)ccn3n2)c1Cl [Compound 170]

OUT:
[60, 20, 70, 70, 0, 95, 90]

Would you mind giving pest or weed control at 500 ppm for every compound in the list below?
1. Cc1ccc(NS(=O)(=O)c2nc3nc(C)cc(C)n3n2)c(Cl)c1 [Compound 48]
2. Cc1cc(C)n2nc(S(=O)(=O)Nc3ccc(Cl)cc3C(F)(F)F)nc2n1 [Compound 34]

OUT:
40
100
